System: Escherichia coli
Assay: Antibacterial activity against extended-spectrum beta-lactamase deficient Escherichia coli ATCC 25922 after 18 hrs by CLSI broth microdilution method
Assay type: functional
Settings: ATCC 25922, 18 h
Entries and their measured log10 MIC follow.
Values are log10 of MIC in µg/mL.

Completed entries (count: 10):
Incoming: Give its log10 MIC value. Item: CN(C)C(=N)c1ccc2cc(-c3cncc(-c4cc5ccc(C(=N)N(C)C)cc5[nH]4)c3)[nH]c2c1
Outgoing: 0.30

Incoming: Give its log10 MIC value. Item: CN(C)C(=N)c1ccc2cc(-c3cnc(-c4cc5ccc(C(=N)N(C)C)cc5[nH]4)cn3)[nH]c2c1
Outgoing: 0.60

Incoming: Give its log10 MIC value. Item: CN1CCC2(CC1)CCN(C(=N)c1ccc3cc(-c4ccc(-c5cc6ccc(C(=N)N7CCC8(CCN(C)CC8)C7)cc6[nH]5)cc4)[nH]c3c1)C2
Outgoing: 0.90

Incoming: Give its log10 MIC value. Item: COCCNC(=N)c1ccc2cc(-c3ccc(-c4cc5ccc(C(=N)NCCOC)cc5[nH]4)cc3)[nH]c2c1
Outgoing: 0.30

Incoming: Give its log10 MIC value. Item: CN(C)C(=N)c1ccc2cc(-c3ccc(-c4cc5ccc(C(=N)N(C)C)cc5[nH]4)cc3)[nH]c2c1
Outgoing: 0.00

Incoming: Give its log10 MIC value. Item: CCN(C)C(=N)c1ccc2cc(-c3ccc(-c4cc5ccc(C(=N)N(C)CC)cc5[nH]4)cc3)[nH]c2c1
Outgoing: 0.00

Incoming: Give its log10 MIC value. Item: CN(C)C(=N)c1ccc2cc(-c3ccc4cc(-c5cc6ccc(C(=N)N(C)C)cc6[nH]5)ccc4c3)[nH]c2c1
Outgoing: 1.51

Incoming: Give its log10 MIC value. Item: CN(C)C(=N)c1ccc2cc(-c3ccc(Oc4ccc(-c5cc6ccc(C(=N)N(C)C)cc6[nH]5)cc4)cc3)[nH]c2c1
Outgoing: 0.60

Incoming: Give its log10 MIC value. Item: c1cc2cc(-c3ccc(-c4cc5ccc(C6=NCCCN6)cc5[nH]4)cc3)[nH]c2cc1C1=NCCCN1
Outgoing: 0.60

Incoming: Give its log10 MIC value. Item: CCC(CC)NC(=N)c1ccc2cc(-c3ccc(-c4cc5ccc(C(=N)NC(CC)CC)cc5[nH]4)cc3)[nH]c2c1
Outgoing: 0.90

Continuing:
Incoming: Give its log10 MIC value. Item: CCNC(=N)c1ccc2cc(-c3ccc(-c4cc5ccc(C(=N)NCC)cc5[nH]4)cc3)[nH]c2c1
Outgoing: 0.90

Incoming: Give its log10 MIC value. Item: CC(C)NC(=N)c1ccc2cc(-c3ccc(-c4cc5ccc(C(=N)NC(C)C)cc5[nH]4)cc3)[nH]c2c1
Outgoing: 0.30

Incoming: Give its log10 MIC value. Item: CNC(=N)c1ccc2cc(-c3ccc(-c4cc5ccc(C(=N)NC)cc5[nH]4)cc3)[nH]c2c1
Outgoing: 0.60

Incoming: Give its log10 MIC value. Item: CN1CCN(C(=N)c2ccc3cc(-c4ccc(-c5cc6ccc(C(=N)N7CCN(C)CC7)cc6[nH]5)cc4)[nH]c3c2)CC1
Outgoing: 0.90

---

System: Escherichia coli
Assay: Antibacterial activity against extended-spectrum beta-lactamase deficient Escherichia coli 12-14 after 18 hrs by CLSI broth microdilution method
Type: functional
Conditions: 12-14, 18 h
Response field label: string, one of yes (1) (MIC strictly below 8 µg/mL) or no (0).

Past entries and their recorded results:
Incoming: MIC strictly < 8 µg/mL for this compound? CCNC(=N)c1ccc2cc(-c3ccc(-c4cc5ccc(C(=N)NCC)cc5[nH]4)cc3)[nH]c2c1
Outgoing: no (0)

Incoming: MIC strictly < 8 µg/mL for this compound? N=C(c1ccc2cc(-c3ccc(-c4cc5ccc(C(=N)N6CCC6)cc5[nH]4)cc3)[nH]c2c1)N1CCC1
Outgoing: yes (1)

Incoming: MIC strictly < 8 µg/mL for this compound? N=C(c1ccc2cc(-c3ccc(-c4cc5ccc(C(=N)N6CCC(N7CCCC7)CC6)cc5[nH]4)cc3)[nH]c2c1)N1CCC(N2CCCC2)CC1
Outgoing: no (0)

Incoming: MIC strictly < 8 µg/mL for this compound? CN(C)C(=N)c1ccc2cc(-c3ccc4cc(-c5cc6ccc(C(=N)N(C)C)cc6[nH]5)ccc4c3)[nH]c2c1
Outgoing: no (0)

Let's switch to this compound now.
Incoming: MIC strictly < 8 µg/mL for this compound? CN(C)C(=N)c1ccc2cc(-c3ccc(-c4cc5ccc(C(=N)N(C)C)cc5[nH]4)nc3)[nH]c2c1
Outgoing: yes (1)
